The origin of these recorded values is patent US20250129095A1.

TESTED ON: KRAS G12D Ba/F3 (Homo sapiens, UniProt P01116, G12D, cells depend on it)
Sequence (P01116 whole entry G12D): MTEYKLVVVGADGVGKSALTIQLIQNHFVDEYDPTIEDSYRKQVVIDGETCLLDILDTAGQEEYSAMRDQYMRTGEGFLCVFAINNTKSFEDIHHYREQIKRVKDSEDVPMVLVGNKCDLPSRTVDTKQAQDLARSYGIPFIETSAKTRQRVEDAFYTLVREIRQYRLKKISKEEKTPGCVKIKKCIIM
PROTOCOL NOTES: Ba/F3 proliferation assay, KRAS G12D
Format: cell-based
ASSAY SETUP: 72 h, AlamarBlue, read-out: KRAS G12D Ba/F3 IC50
Measured GI50, listed per entry for reference.

Need GI50, item C[C@H](Oc1cc(Nc2ncccn2)nc(-c2noc3c2CCC[C@@]32CCCc3sc(N)c(C#N)c32)n1)[C@@H]1CCCN1C
33 nM

###

TESTED ON: KRAS (G12C)::SOS1 (Homo sapiens, UniProt P01116, C118S/C51S/C80L/G12C)
Construct: KRAS (G12C) 1-169, N-terminal 6His-tag for purification, cleaved off; 6His-tag (N, cleaved yes)
Sequence (P01116 1-169 isoform P01116-2 G12C/C51S/C80L/C118S): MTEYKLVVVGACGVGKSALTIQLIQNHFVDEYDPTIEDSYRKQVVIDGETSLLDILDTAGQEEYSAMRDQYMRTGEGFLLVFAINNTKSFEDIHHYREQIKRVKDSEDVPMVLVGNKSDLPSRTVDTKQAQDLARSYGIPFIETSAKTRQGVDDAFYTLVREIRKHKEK
PROTOCOL NOTES: KRAS::SOS1 AlphaScreen binding assay, KRAS G12C
ASSAY SETUP: read-out: KRASG12C IC50
Description: This assay can be used to examine the potency with which compounds according to the invention binding to (mutated) KRAS inhibit the protein-protein interaction between SOS1 and (mutated) KRAS e.g., KRAS WT, KRAS G12C, KRAS G12D, KRAS G12V, KRAS G13D. […] Plates are kept at room temperature in a darkened incubator. After an additional 60 minutes incubation time the signal is measured in a PerkinElmer Envision HTS Multilabel Reader using the AlphaScreen specs from PerkinElmer. […]
PARAMETER: IC50 (nM)
Numeric only. Scale: nM

Worked set:
entry_smiles=C[C@H](Oc1cc(N(C)CCN(C)C)nc(-c2noc3c2CCC[C@@]32CCCc3sc(N)c(C#N)c32)n1)[C@@H]1CCCN1C result_unit=nM numeric_result=10
entry_smiles=C[C@H](Oc1cc(Nc2ccncn2)nc(-c2noc3c2CCC[C@@]32CCCc3sc(N)c(C#N)c32)n1)[C@@H]1CCCN1C result_unit=nM numeric_result=3
entry_smiles=CO[C@@H]1C[C@@H]([C@H](C)Oc2cc(O[C@@H]3CNC3(C)C)nc(-c3noc4c3CCC[C@@]43CCCc4sc(N)c(C#N)c43)n2)N(C)C1 result_unit=nM numeric_result=1
entry_smiles=C[C@H](Oc1cc(NCC2COC2)nc(-c2noc3c2CCC[C@@]32CCCc3sc(N)c(C#N)c32)n1)[C@@H]1CCCN1C result_unit=nM numeric_result=2

Need IC50, item C[C@H](Oc1cc(OCCO)nc(-c2noc3c2CCC[C@@]32CCCc3sc(N)c(C#N)c32)n1)[C@@H]1CCCN1C
1

Need IC50, item C[C@H](Oc1cc(Nc2ccccn2)nc(-c2onc3c2CCC[C@@]32CCCc3sc(N)c(C#N)c32)n1)[C@@H]1CCCN1C
3
